system: SK-MEL-5; test: NCI tumour cell line growth inhibition, 48 h
Active and inactive are the calls of the source. No stated cut-off is given here; in the data, active = GI50 up to about 1.1 µM and inactive = higher. Bridge positions count the residues as written; N and C are the ends. Square brackets hold non-standard residues; d marks the D form. Peptide text beside a SMILES is read from it. * marks the point of attachment. Cya = N[CH](CS(=O)(=O)O)C(=O)O; X49 = CC(C)CCCCCCCC(O)CC(=O)*; GABA = NCCCC(=O)O
Outcome field: choose from 1 = active, 0 = inactive

1) O=C1CCCCC1C(O)(C(F)(F)F)C(F)(F)Cl (centres undefined)
0
2) C/C=C1\CN2CCc3c([nH]c4ccccc34)C2CC1CCO (centres undefined)
0
3) CCOC(=O)C1c2[nH]c3ccccc3c2CCN1C(=O)c1ccco1 (centres undefined)
0

Q: Test call for this compound, please: O=C1c2ccccc2C2(O)Nc3c(ccc4ccccc34)C12O (centres undefined)
Ans: 0

Q: Please indicate how the test categorized CNC(=O)SCC(NC(=O)CCC(N)C(=O)O)C(=O)NCC(=O)O (centres undefined) .
Ans: 0

Q: // param item: Cn1c(S)nc(C(N)=O)c1N ; yields the recorded call
Ans: 0

Q: For this compound, state the assay outcome: COC(=O)C1[C@H](c2cc(OC)c(OC)c(OC)c2)OC(=O)C1(C(=O)OC)C(=O)c1ccc2c(c1)OCO2 (some centres undefined)
Ans: 0

Q: What classification did Nc1ccn(C2OC(C(OC3OC(CO)C(O)C(N)C3O)C(O)C(O)C(O)C(O)CO)C(N)C(O)C2O)c(=O)n1 (centres undefined) end up with in this test?
Ans: 0

Q: Entry COc1cc(O)c2c(c1)OCC(Cc1ccc(O)cc1)C2=O (centres undefined) : call = ?
Ans: 0

Q: Please let me know the test result on file for COC(=O)C1CC23C4=C(CCC41)CCC1CN4CC(C)C(CC(OC(C)=O)C12COC(C)=O)C43O (centres undefined) .
Ans: 0

Q: # lookup: test call for C/C=C/C1OC(O)(C(C)C(O)[C@H](C)C2OC(=O)/C(OC)=C/C(C)=C/[C@@H](C)[C@@H](O)[C@@H](C)C(O)C(C)C/C(C)=C/C=C/C2OC)C[C@@H](OC2CC(O)C(OC(N)=O)C(C)O2)C1C (some centres undefined)
Ans: 1

Q: In this assay, the call recorded for O=C1O[B-](c2ccccc2)(c2ccccc2)[NH+]2CCCC12 (centres undefined) was what?
Ans: 0

Q: Kindly provide the recorded test outcome for the following compound: O=C1Nc2ccccc2/C1=N/NC(=S)N1CCCCCC1
Ans: 1

Q: For CC(C)CCCCCCCC(O)CC(=O)NC(CS(=O)(=O)O)C(=O)NC(CC(C)C)C(=O)NCCCC(=O)NC(Cc1c[nH]cn1)C(=O)NC(C)C(=O)NC1C(=O)NC(C(C)O)C(=O)NC(Cc2c[nH]cn2)C(=O)NC(C)C(=O)NC(C(C)O)C(=O)OC1C (centres undefined) (X49-[Cya]L[GABA]HATTHAT; ester 6-C; configuration not given here) , what call appears in the results of this test?
Ans: 0

---

tested on: K562; experiment: NCI tumour cell line growth inhibition, 48 h
Activity calls are given as the source filed them. Cut-off read from the data, not from the text of the source: active = GI50 up to about 1.1 µM and inactive = higher.
test.readout: GI50

1) O=C(NCCOCCO)c1ccc(O)cc1
> 100 µM (inactive)
2) NC(C(F)(F)F)(C(F)(F)F)P(=O)(Cc1ccccc1)Cc1ccccc1
> 100 µM (inactive)
3) CN1C(=O)c2c(c3c4ccccc4n(C)c3c3c2c2ccccc2n3C)C1=O
> 100 µM (inactive)
4) NC(=O)NNc1nc2ccccc2c(=O)n1NC(=O)C(=O)Nc1ccc(Cl)cc1Cl
> 100 µM (inactive)
5) O=C(CC(C(=O)c1ccco1)c1ccsc1)c1ccco1 (stereo not given)
78 µM (inactive)
6) CCC(=O)Nc1ncnc2ncn(C(=O)CC)c12
> 100 µM (inactive)

Form: compound = O=C(CC(C(=O)c1ccsc1)c1ccccc1)c1cccs1 (stereo not given) ; GI50 = > 100 µM (inactive)

// recorded GI50 for N#CCCN(CCC#N)c1ccc(/C=C2\N=C(c3ccccc3)N(NC(N)=S)C2=O)cc1 : > 100 µM (inactive)

Cn1nc(-c2ccccc2)c2c(/C=C/c3ccc(F)cc3)onc2c1=O has a reported GI50 of 17.3 µM (inactive)

For FC(F)(F)C1=NC(=NNc2nnc(-c3ccccc3)c(-c3ccccc3)n2)N=C(C(F)(F)F)C1 the compound record lists GI50 as 4.11 µM (inactive)

---

A collection of molecules and their measured GI50
test system: MOLT-4; test: NCI tumour cell line growth inhibition, 48 h
Active and inactive are the calls of the source. No stated cut-off is given here; in the data, active = GI50 up to about 1.1 µM and inactive = higher.

1. Nc1ccn(C2OC(C(OC3OC(CO)C(O)C(N)C3O)C(O)C(O)C(O)C(O)CO)C(N)C(O)C2O)c(=O)n1 (stereo not drawn)
> 100 µM (inactive)

The recorded GI50 for entry CC1=NN(c2cc(Cl)c(S(=O)(=O)O)cc2Cl)C2(C1)C(Cl)C(=O)N2c1nc2ccccc2s1 (stereo not drawn) equals 45.6 µM (inactive)

Notebook: O=C(/N=N/c1ccc(Cl)cc1Cl)NNc1ccc(Cl)cc1Cl , GI50 read as 16.3 µM (inactive)

---

test system: MOLT-4; experiment: NCI tumour cell line growth inhibition, 48 h
Calls of active or inactive are those of the source. No stated cut-off is given here; in the data, active = GI50 up to about 1.1 µM and inactive = higher.
Item-by-item account of GI50

1. Nc1ccc(/N=N/c2ccccc2)cc1
11.7 µM (inactive)

Noted for COc1ccc(/C=N/c2nc3cc4sc(/N=C/c5ccc(OC)cc5)nc4cc3s2)cc1 : its GI50 reads 8.15 µM (inactive)

Value of GI50 reported for the compound O=c1c2ncn(CCCl)c2n(-c2ccccc2)c(=S)n1-c1ccccc1 is > 100 µM (inactive)

---

system: RXF 393; experiment: NCI tumour cell line growth inhibition, 48 h
Active and inactive are the calls of the source. No stated cut-off is given here; in the data, active = GI50 up to about 1.1 µM and inactive = higher.
Select the matching outcome among 1.0 for active, 0.0 for inactive

Use the examples below as a reference point.
1. O=C1C=C(N2CC2)C(=O)C=C1N1CC1
1.0
2. O=C1CCCCC1C(O)(C(F)(F)F)C(F)(F)Cl (configuration not stated)
0.0
3. NC(=O)NNc1nc2ccccc2c(=O)n1NC(=O)C(=O)Nc1ccc(Cl)cc1Cl
0.0

Q: Test call, this compound: CCC(=O)Nc1ncnc2ncn(C(=O)CC)c12
Ans: 0.0

Q: For CCN1/C(=C/C#C/C(C)=C\c2sc3ccc(Cl)cc3[n+]2CC)Sc2ccc(Cl)cc21 , what call appears in the results of this test?
Ans: 0.0

Q: Dear colleague, could you share the recorded outcome for O=C(O)CCC(=O)OC1N=C(c2ccccc2Cl)c2cc([N+](=O)[O-])ccc2NC1=O (configuration not stated) when you have a moment?
Ans: 0.0

Q: Please share the test call associated with Cc1nc(O)nc(NNCc2ccc(Cl)cc2)c1C(=O)Nc1ccc(Cl)cc1 .
Ans: 0.0

Q: Entry CC(C)(C)OC(=O)N(CCCCNC(=O)OCc1ccccc1)CCCNC(=O)OCc1ccccc1 : call = ?
Ans: 0.0

---

Measured GI50, listed per entry.
tested on: NCI-H23; assay: NCI tumour cell line growth inhibition, 48 h
Calls of active or inactive are those of the source. Cut-off read from the data, not from the text of the source: active = GI50 up to about 1.1 µM and inactive = higher.

Lab book: GI50 of CC(C)C1CCC(=O)CC1CCCCC1CC(=O)CC1O[Si](C)(C)C(C)(C)C (stereo unspecified) noted as 15.5 µM (inactive)

response.value for CC(=O)OC/C=C\Cn1nc(Br)c(=O)[nH]c1=O (field: GI50) = 15.1 µM (inactive)

Short answer for OCC1OC(c2scc3c(=S)[nH]cnc23)C(O)C1O (stereo unspecified) : GI50 was 21 µM (inactive)

Noted for CCOC(=O)/C=C(/C(=O)OCC)n1cc(C)c(=O)n(Cc2cnnn2COCCOC(C)=O)c1=O : its GI50 reads 15.8 µM (inactive)

Entry under test: N#CC(Cc1ccccc1)N(CCC1=CCCCC1)C(c1ccccc1)c1ccccc1 (stereo unspecified) . Its GI50 was 60.1 µM (inactive)

# compound CSc1ccc(NC(=O)C2CCCCC2C(=O)O)cc1 (stereo unspecified) ; its GI50 = > 100 µM (inactive)

Entry under test: Oc1cccc(-c2nc3cc(F)ccc3s2)c1 . Its GI50 was 16.6 µM (inactive)

Please fill in: GI50 reported for CCCCCCOc1ccc(C(=O)NOCc2ccccc2)cc1 = > 100 µM (inactive)

Summary for this compound, Cc1oc2c(C)c(O)c3c(c2c1C1(C)OCCO1)C(=O)C=C(Cl)C3=O : GI50 is > 100 µM (inactive)

Sure, the documented GI50 for CCCCNC(=S)N/C=C1\C(=O)Oc2ccccc2C1=O is 88.5 µM (inactive)

Measured GI50, O=C1C=CC(=O)c2c(O)ccc(O)c21 [NAPHTHAZALIN] : 2.61 µM (inactive)

Reported GI50 ( Cc1ccsc1/C(S)=N\c1ccc(Cl)c(/C=N/OC(C)(C)C)c1 ) = 24.7 µM (inactive)

compound CCC1C(=O)OCc2c1cc1n(c2=O)Cc2cc3ccccc3nc2-1 (stereo unspecified) , GI50 observed: 2.84 µM (inactive)

According to the records, this compound FC(F)(F)C1=NC(=NNc2nnc(-c3ccccc3)c(-c3ccccc3)n2)N=C(C(F)(F)F)C1 displays GI50 of 19.5 µM (inactive)

Sample C/C=C1/C=CC2c3[nH]c4ccccc4c3CCN2C1 (stereo unspecified) ; GI50 observed: > 400 µM (inactive)

The compound identified as CC(C)=CCC[C@@H](C)C1=C(Nc2ccccc2Cl)C(=O)C(C)=C(O)C1=O registered its GI50 at 2.84 µM (inactive)

# GI50 (compound: Cc1cc(Cl)cc2c1NC(=O)C2=O.O=C(c1ccccc1)C(F)(F)F ) is > 100 µM (inactive)

Item: CC1=C(C(=O)NNS(=O)(=O)c2ccc(C)cc2)CC(C(=O)NNS(=O)(=O)c2ccc(C)cc2)=C(C)N1 | GI50: > 100 µM (inactive)

What the record says about COc1ccccc1N1C(=O)C2c3[nH]c4ccccc4c3C3CCC(C(C)(C)C)CC3C2C1=O (stereo unspecified) : GI50 is > 100 µM (inactive)

# GI50 of CC1(C)CCCCCC(C)(CCCO)C1=O (stereo unspecified) = > 100 µM (inactive)

Kindly note the recorded GI50 for CCOC(=O)C1(C(=O)OCC)CSC1 , which is > 100 µM (inactive)
